# experimental.details: self-splicing fitness, log relative to wild type (ln ratio); higher = more splicing; Tetrahymena group I intron in knt gene, E. coli kanamycin selection, DiMSum; sequences stand for … in CUCUCU…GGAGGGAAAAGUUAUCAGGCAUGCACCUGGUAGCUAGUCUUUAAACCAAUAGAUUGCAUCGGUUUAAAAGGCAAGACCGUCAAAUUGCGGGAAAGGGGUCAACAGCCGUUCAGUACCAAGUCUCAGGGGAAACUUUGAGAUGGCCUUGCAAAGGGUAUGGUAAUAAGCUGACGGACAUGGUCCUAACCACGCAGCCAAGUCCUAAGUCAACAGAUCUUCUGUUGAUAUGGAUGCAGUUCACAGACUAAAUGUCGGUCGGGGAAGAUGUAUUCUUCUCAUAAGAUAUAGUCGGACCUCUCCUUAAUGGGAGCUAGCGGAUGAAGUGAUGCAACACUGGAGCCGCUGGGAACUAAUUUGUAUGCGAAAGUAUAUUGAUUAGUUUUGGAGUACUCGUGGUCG;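 also: selection with 25 µg/mL kanamycin versus none on LB agar overnight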
# condition: 37 °C
Tick Met if self-splicing fitness (ln) is -1 or greater. Tick Not met if self-splicing fitness (ln) is less than -1.

The following sequences have reported results that may help.
>  <sequence.string>
GGCCAGCAAUAUUACGGUUA

>  <answer.label>
Met

$$$$
>  <sequence.string>
GUCAAGCAAUAUUACGAUGG

>  <answer.label>
Not met

$$$$
>  <sequence.string>
GAAUAGCAAUAUUACGUCCG

>  <answer.label>
Not met

$$$$
>  <sequence.string>
UGCUAGCAAUAUUACGCCCA

>  <answer.label>
Met

$$$$

[in] Entry "GACUAGCAAUAUUACGCCAC" : is its self-splicing fitness (ln) no less than -1?
[out] Not met

* * *

# experimental.details: self-splicing fitness, log relative to wild type (ln ratio); higher = more splicing; Tetrahymena group I intron in knt gene, E. coli kanamycin selection, DiMSum; sequences stand for … in CUCUCU…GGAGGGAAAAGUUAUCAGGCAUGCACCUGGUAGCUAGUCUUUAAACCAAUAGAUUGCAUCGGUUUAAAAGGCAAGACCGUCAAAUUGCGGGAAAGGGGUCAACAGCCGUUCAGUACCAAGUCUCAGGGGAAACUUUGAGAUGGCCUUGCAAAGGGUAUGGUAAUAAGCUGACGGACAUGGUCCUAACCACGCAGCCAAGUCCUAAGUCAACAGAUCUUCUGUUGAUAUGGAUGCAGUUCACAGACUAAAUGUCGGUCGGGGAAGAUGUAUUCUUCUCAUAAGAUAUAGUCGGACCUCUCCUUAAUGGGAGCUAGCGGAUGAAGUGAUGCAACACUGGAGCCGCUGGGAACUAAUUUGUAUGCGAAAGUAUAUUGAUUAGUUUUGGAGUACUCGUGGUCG
# condition: 30 °C
Grouping by measured self-splicing fitness (ln) is done with the following cut points: low class (below -3), middle class (-3 to below -2), high class (-2 or more)

The following sequences have reported results that may help.
>  <sequence.string>
CUUAAGCAAUAUUACGGUGA

>  <answer.label>
low class

$$$$
>  <sequence.string>
AGAUAGCAAUAUUACGAACU

>  <answer.label>
high class

$$$$
>  <sequence.string>
AACAAGCAAUAUUACGCAAG

>  <answer.label>
high class

$$$$
>  <sequence.string>
CUCAAGCAAUAUUACGACGC

>  <answer.label>
high class

$$$$
>  <sequence.string>
CACAAGCAAUAUUACGUGCG

>  <answer.label>
middle class

$$$$
>  <sequence.string>
GCCGAGCAAUAUUACGCGUA

>  <answer.label>
high class

$$$$
>  <sequence.string>
AAGAAGCAAUAUUACGCCCC

>  <answer.label>
high class

$$$$
>  <sequence.string>
AUUGAGCAAUAUUACGUUCA

>  <answer.label>
high class

$$$$

Moving on to the next sequence.
[in] Which class does "GCUUAGCAAUAUUACGUCCG" fall in?
[out] high class
